Reported pIC50 values follow for various molecules
ASSAY SYSTEM: Ras farnesyl transferase (Rattus norvegicus, UniProt Q02293+Q04631)
Construct: endogenous in cells; host or cells: Rat2 fibroblasts transformed with H-Ras or with an H-Ras/K-Ras C-terminus fusion
METHOD: In vivo (cellular) inhibitory activity for Ras farnesyl transferase, Rat2 cell line which expresses C-Harvey-Ras protein
Format: cell-based
DETAILS: Rat2 cell line expressing C-Harvey-Ras; concentration inhibiting 50% of farnesyl bonding of Ras protein; read-out: H-Ras CIC50
pIC50: −log10 of the molar value.

See these solved cases before continuing.
[[record]]
molecule = "O=C(c1cccs1)c1cn(Cc2c[nH]cn2)cc1-c1cccc2ccccc12 [Compound 44]"
result = "4.30 to 6.00"

[[record]]
molecule = "COc1cccc(C(=O)c2cn(Cc3c[nH]cn3)cc2-c2cccc3ccccc23)c1 [Compound 53]"
result = "4.30 to 6.00"


Let us move to another entry and its pIC50.
(Q) Can you share its pIC50? I mean this molecule: O=C(c1ccc(Cl)cc1)c1cn(Cc2c[nH]cn2)cc1-c1cccc2ccccc12 [Compound 56]
(A) 4.30 to 6.00

---

ASSAY SYSTEM: Ras farnesyl transferase (Rattus norvegicus, UniProt Q02293+Q04631)
Construct: endogenous in cells; host or cells: Rat2 fibroblasts transformed with H-Ras or with an H-Ras/K-Ras C-terminus fusion
METHOD: In vivo (cellular) inhibitory activity for Ras farnesyl transferase, Rat2 cell line transformed with fused protein of H-Ras substituted with polybasic lysine domain at C-terminus of K-Ras
Assay type: cell-based
DETAILS: Rat2 cell line transformed with H-Ras fused with polybasic lysine domain of K-Ras C-terminus; concentration inhibiting 50% of farnesyl bonding; read-out: K-Ras CIC50
Procedure: In the present experiment, Rat2 cell line which expresses C-Harvey-Ras protein having transforming activity and Rat2 cell line (Korean patent application No. 97-14409) which is transformed with fused protein of H-Ras substituted with polybasic lysine domain at C-terminus of K-Ras were used. The experiment was performed by the modified Declue's method (Declue. J. E. et al., Cancer Research, 1991, 51, 712). Hereinafter, the experimental method will be described in more detail. […]
As shown below, each of these compounds has a reported IC50 value.

These recorded examples may help you get a feel for the data.
[[record]]
molecule_smiles = "CN1CCN(C(=O)c2cn(Cc3cncn3Cc3ccc(Br)cc3)cc2-c2cccc3ccccc23)CC1"
result = "4 µM"

[[record]]
molecule_smiles = "Cc1ccccc1C(=O)c1cn(Cc2c[nH]cn2)cc1-c1cccc2ccccc12"
result = "10 to 100 µM"

[[record]]
molecule_smiles = "CN1CCN(C(=O)c2cn(Cc3cncn3Cc3ccc4c(c3)OCO4)cc2-c2cccc3ccccc23)CC1"
result = "15 µM"

[[record]]
molecule_smiles = "COC(=O)[C@H](CCSC)NC(=O)c1cn(Cc2c[nH]cn2)cc1-c1cccc2ccccc12"
result = "10 to 100 µM"

[[record]]
molecule_smiles = "COCCN(C)C(=O)c1cn(Cc2cncn2Cc2ccc(F)cc2)cc1-c1cccc2ccccc12"
result = "5 µM"


Here is another compound to look at.
(Q) Fill in the blank: the reported IC50 of CC(C)C[C@H](NC(=O)c1cn(Cc2cncn2Cc2ccc(C#N)cc2)cc1-c1cccc2ccccc12)C(=O)O is ____.
(A) 10 to 100 µM

---

Reported IC50 by item:
ASSAY SYSTEM: Ras farnesyl transferase (Rattus norvegicus, UniProt Q02293+Q04631)
Construct: endogenous in cells; host or cells: Rat2 fibroblasts transformed with H-Ras or with an H-Ras/K-Ras C-terminus fusion
METHOD: In vivo (cellular) inhibitory activity for Ras farnesyl transferase, Rat2 cell line which expresses C-Harvey-Ras protein
Assay type: cell-based
DETAILS: Rat2 cell line expressing C-Harvey-Ras; concentration inhibiting 50% of farnesyl bonding of Ras protein; read-out: H-Ras CIC50
Respond with the bare value in nM.

(Q) Returns the measured IC50 for the input compound. Input: COc1ccc(Cn2cncc2Cn2cc(C(=O)N3CCN(C)CC3)c(-c3cccc4ccccc34)c2)cc1 [Compound 130]
(A) 25

(Q) Look up IC50 for this compound: COCCN(C)C(=O)c1cn(Cc2cncn2CCc2ccc(C)cc2)cc1-c1cccc2ccccc12 [Compound 37]
(A) 25

(Q) Give its IC50 value. Item: COCCN(C)C(=O)c1cn(Cc2cncn2CCc2ccccc2OC)cc1-c1cccc2ccccc12 [Compound 17]
(A) 25

(Q) Recorded IC50 for Cn1cnc(Cn2cc(C(=O)c3ccc(F)cc3)c(-c3cccc4ccccc34)c2)c1 [Compound 78] , please?
(A) 100

(Q) # IC50 lookup, item N#Cc1ccc(Cn2cncc2Cn2cc(C(=O)c3ccc(Br)cc3)c(-c3cccc4ccccc34)c2)cc1 [Compound 77]
(A) 100

---

Recorded measurements of IC50, one per entry
ASSAY SYSTEM: Ras farnesyl transferase (Homo sapiens, UniProt P49354+P49356)
Construct: made in house
METHOD: In vitro inhibitory activity for Ras farnesyl transferase, K-Ras substrate
Type: biochemical
DETAILS: in vitro farnesyl transferase assay, K-Ras; read-out: K-Ras IC50

(Q) Provide value of IC50 for this record tested with Ras farnesyl transferase (Homo sapiens, UniProt P49354+P49356): CCCCc1c(-c2cccc3ccccc23)c(C(=O)c2ccc(Cl)cc2Cl)cn1Cc1c[nH]cn1
(A) 100 to 10000 nM

(Q) For the record CSCc1cccc(C(=O)c2cn(Cc3c[nH]cn3)cc2-c2cccc3ccccc23)c1 , what value of IC50 is listed for Ras farnesyl transferase (Homo sapiens, UniProt P49354+P49356)?
(A) 100 to 10000 nM

(Q) Query for Ras farnesyl transferase (Homo sapiens, UniProt P49354+P49356): what IC50 does the record show for O=C(c1cn(Cc2c[nH]cn2)cc1-c1ccnc2ccccc12)N1CCOCC1 ?
(A) 100 to 10000 nM

(Q) Find IC50 (Ras farnesyl transferase (Homo sapiens, UniProt P49354+P49356)) for the entry CN(CCO)C(=O)c1cn(Cc2c[nH]cn2)cc1-c1cccc2ccccc12
(A) 100 to 10000 nM

(Q) Entry N#Cc1ccc(CNC(=O)c2cn(Cc3c[nH]cn3)cc2-c2cccc3ccccc23)cc1 , system Ras farnesyl transferase (Homo sapiens, UniProt P49354+P49356): what IC50 was measured?
(A) 100 to 10000 nM

---

ASSAY SYSTEM: Ras farnesyl transferase (Homo sapiens, UniProt P49354+P49356)
Construct: made in house
METHOD: In vitro inhibitory activity for Ras farnesyl transferase, H-Ras substrate
Format: biochemical
DETAILS: recombinant farnesyl transferase 4.5 nM, Ras substrate protein 1.5 μM, tritium-farnesylpyrophosphate 0.15 μM, 30 minutes at 37° C.; read-out: H-Ras IC50
Excerpt: In the present experiment, Ras farnesyl transferase produced by genetic recombination techniques according to the improved Pompliano's method (Pompliano et al., Biochemistry, 1992, 31, 3800) was used, and Ras substrate (Ras-CVLS) protein described in Korean Patent Appln. No. 97-14409 was used after it has been purified according to the known method (see, Chung et al., Biochimica et Biophysica Acta, 1992, 278, 1129). […]
// reported pIC50 for each item listed
Would you please state pIC50, meaning minus log10 of the concentration in mol/L, as a bare number?

Examples from the recorded data:
[[record]]
molecule_smiles = "COC(=O)[C@H](CCSC)NC(=O)c1cn(Cc2c[nH]cn2)cc1-c1cccc2ccccc12"
result_number = 5.09

[[record]]
molecule_smiles = "COCCN(C)C(=O)c1cn(Cc2c[nH]cn2)cc1-c1cccc2ccccc12"
result_number = 9.15

[[record]]
molecule_smiles = "O=C(c1ccc(Br)cc1)c1cn(Cc2c[nH]cn2)cc1-c1cccc2ccccc12"
result_number = 7.52


(Q) Please report the recorded pIC50 for CC(C)C[C@H](NC(=O)c1cn(Cc2cncn2Cc2ccc(C#N)cc2)cc1-c1cccc2ccccc12)C(=O)O .
(A) 7.19

(Q) Which measured pIC50 value corresponds to O=C(c1cn(Cc2c[nH]cn2)cc1-c1cccc2ccccc12)N1CCC(O)CC1 ?
(A) 5.67

(Q) // pIC50 lookup, key: COCCN(C)C(=O)c1cn(Cc2cncn2CC2CCN(C(=O)OC)CC2)nc1-c1cccc2ccccc12
(A) 7.52

(Q) Fill in the blank: the reported pIC50 of CN1CCN(C(=O)c2cn(Cc3cncn3CCc3ccc(F)cc3)cc2-c2cccc3ccccc23)CC1 is ____.
(A) 9.00

(Q) # pIC50 lookup, item CSCC[C@H](NC(=O)c1cn(Cc2c[nH]cn2)cc1-c1cccc2ccccc12)C(=O)O
(A) 6.17

---

ASSAY SYSTEM: Ras farnesyl transferase (Homo sapiens, UniProt P49354+P49356)
Construct: made in house
METHOD: In vitro inhibitory activity for Ras farnesyl transferase, K-Ras substrate
Format: biochemical
DETAILS: in vitro farnesyl transferase assay, K-Ras; read-out: K-Ras IC50
ENDPOINT LABEL: IC50

[[record]]
compound = "COC(=O)C(CCSC)NC(=O)c1cn(Cc2cncn2Cc2ccc(C#N)cc2)cc1-c1cccc2ccccc12 (stereo in doubt) [Compound 100]"
result = "0.1 to 10 µM"

[[record]]
compound = "O=C(c1cn(CCCc2c[nH]cn2)cc1-c1cccc2ccccc12)N1CCOCC1 [Compound 109]"
result = "1 to 50 µM"

[[record]]
compound = "O=C(c1ccccc1Cl)c1cn(Cc2c[nH]cn2)cc1-c1cccc2ccccc12 [Compound 55]"
result = "0.1 to 10 µM"

[[record]]
compound = "COC(=O)[C@H](CCSC)NC(=O)c1cn(CCCc2c[nH]cn2)cc1-c1cccc2ccccc12 [Compound 107]"
result = "0.1 to 10 µM"

[[record]]
compound = "O=C(c1ccc(Cl)cc1Cl)c1cn(Cc2c[nH]cn2)c(Cc2ccccc2)c1-c1cccc2ccccc12 [Compound 72]"
result = "0.1 to 10 µM"

[[record]]
compound = "N#Cc1ccc(Cn2cncc2Cn2cc(C(=S)N3CCOCC3)c(-c3cccc4ccccc34)c2)cc1 [Compound 113]"
result = "< 0.1 µM"


(Q) Record request: IC50 value, item O=C(c1cn(Cc2c[nH]cn2)cc1-c1cccc2ccccc12)N1CCNCC1 [Compound 88]
(A) 0.1 to 10 µM

(Q) Data request, read-out IC50, for COC(=O)[C@H](CCSC)NC(=O)c1cn(Cc2c[nH]cn2)cc1-c1cccc2ccccc12 [Compound 80]
(A) 0.1 to 10 µM

(Q) Form field: reported IC50 of CCOC(=O)c1nc(Cc2cnc[nH]2)oc1-c1cccc2ccccc12 [Compound 142]
(A) > 50 µM

(Q) Which IC50 is listed for O=C(c1ccc(Oc2ccccc2)cc1)c1cn(Cc2c[nH]cn2)cc1-c1cccc2ccccc12 [Compound 67] ?
(A) 0.1 to 10 µM

(Q) Consider the compound COc1ccc(C(=O)c2cn(Cc3c[nH]cn3)cc2-c2cccc3ccccc23)cc1 [Compound 54] and give its measured IC50.
(A) 0.1 to 10 µM
